Cited source: paper PMC9927415

So I've got a bunch of compounds here, and I need their inhibition at 10 µM values.
target: SYK (Homo sapiens, UniProt P43405); construct: purchased DiscoverX (KINOMEscan); assay: KINOMEscan competitive binding; settings: n=1, read-out: Percent inhibition, SYK
Give bare numbers, in %.

Reference set (3 entries):
[
  {
    "Item Smiles": "C[C@@H](Oc1cc(-c2cnc3ccccn23)sc1C(N)=O)c1ccccc1Cl",
    "Quantity": "inhibition at 10 µM",
    "Measured Value": 0
  },
  {
    "Item Smiles": "COc1cc(Nc2nccc(-c3sc(N)nc3-c3cccc(NC(=O)c4c(F)cccc4F)c3)n2)cc(OC)c1OC",
    "Quantity": "inhibition at 10 µM",
    "Measured Value": 98.9
  },
  {
    "Item Smiles": "Nc1ncc2c(-c3ccncc3)c[nH]c2n1",
    "Quantity": "inhibition at 10 µM",
    "Measured Value": 75.9
  }
]

Batch lookup, inhibition at 10 µM per entry.
1. Fc1cccc(COc2ccc(Nc3ncnc4c3CN(CCN3CCOCC3)CC4)cc2Cl)c1
2. c1ccc(COc2cccc(-c3ccnc4[nH]ccc34)c2)cc1
3. Clc1ccc(Nc2ncc(-c3ccccc3)s2)cc1
4. Cc1ccc(O)cc1N(C)c1ccnc(Nc2cccc(S(N)(=O)=O)c2)n1

Result:
0
0
0
98.7

Kindly give each listed record's inhibition at 10 µM.
1. CN1CCN(c2ccc(Nc3nccc(-c4cnn5ncccc45)n3)cc2C#N)CC1
2. COc1ccc(Nc2nccc(-c3cnn4ncccc34)n2)cc1

Result:
1. 78.3
2. 80.9

###

target: panel of 203 kinases (Homo sapiens, UniProt P51451); construct: purchased DiscoverX (KINOMEscan); assay: KINOMEscan competitive binding, whole panel; settings: 10 µM, n=1; kinase BLK; read-out: Percent inhibition BLK
Sequence (P51451 whole entry): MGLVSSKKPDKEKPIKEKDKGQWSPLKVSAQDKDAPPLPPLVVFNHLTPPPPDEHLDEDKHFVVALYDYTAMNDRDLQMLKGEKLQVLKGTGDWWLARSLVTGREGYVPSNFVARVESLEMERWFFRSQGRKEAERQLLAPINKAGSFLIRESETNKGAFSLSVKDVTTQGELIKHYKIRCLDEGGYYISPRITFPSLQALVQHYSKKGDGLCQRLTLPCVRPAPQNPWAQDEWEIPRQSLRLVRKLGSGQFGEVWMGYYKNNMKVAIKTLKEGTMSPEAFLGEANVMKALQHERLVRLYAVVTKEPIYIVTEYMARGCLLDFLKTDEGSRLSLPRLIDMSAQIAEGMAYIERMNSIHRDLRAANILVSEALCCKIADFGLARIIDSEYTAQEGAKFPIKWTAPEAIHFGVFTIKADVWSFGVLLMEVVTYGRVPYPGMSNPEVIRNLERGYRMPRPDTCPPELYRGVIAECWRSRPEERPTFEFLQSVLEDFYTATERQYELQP
Label rule, in plain words: inhibition at 10 µM of 60% and up is y, under 60% is n.

[
  {
    "Item Smiles": "C[C@@H](Oc1cc(-c2cnc3ccccn23)sc1C(N)=O)c1ccccc1Cl",
    "Label Value": "n"
  },
  {
    "Item Smiles": "Cc1ccc(O)cc1Nc1ccnc(Nc2cccc(C(N)=O)c2)n1",
    "Label Value": "y"
  },
  {
    "Item Smiles": "Fc1cccc(COc2ccc(Nc3ncnc4c3CN(CCN3CCOCC3)CC4)cc2Cl)c1",
    "Label Value": "n"
  }
]

Q: Reported inhibition at 10 µM at or above 60%? `COc1cc(Nc2nccc(-c3sc(N)nc3-c3cccc(NC(=O)c4c(F)cccc4F)c3)n2)cc(OC)c1OC`
Result: y

Q: Given the entry `Nc1ncc2c(-c3ccncc3)c[nH]c2n1` , answer whether its inhibition at 10 µM meets or surpasses 60%.
Result: n

Q: Reported inhibition at 10 µM reaches at least 60% for `Clc1ccc(Nc2ncc(-c3ccccc3)s2)cc1` ?
Result: n

Q: Kindly determine if inhibition at 10 µM recorded for `CN1CCN(c2ccc(Nc3nccc(-c4cnn5ncccc45)n3)cc2C#N)CC1` is above or exactly 60%.
Result: y

Q: hey, is inhibition at 10 µM for this one >= 60%? `Cc1ccc(O)cc1N(C)c1ccnc(Nc2cccc(S(N)(=O)=O)c2)n1`
Result: y

Q: In plain terms: is recorded inhibition at 10 µM at least 60% for `COc1ccc(Nc2nccc(-c3cnn4ncccc34)n2)cc1` ?
Result: y

Q: Does the compound `c1ccc(COc2cccc(-c3ccnc4[nH]ccc34)c2)cc1` have recorded inhibition at 10 µM that is 60% or more?
Result: n

###

Molecular target: CSNK1D (Homo sapiens)
Construct: purchased DiscoverX (KINOMEscan)
Sequence (P48730 whole entry): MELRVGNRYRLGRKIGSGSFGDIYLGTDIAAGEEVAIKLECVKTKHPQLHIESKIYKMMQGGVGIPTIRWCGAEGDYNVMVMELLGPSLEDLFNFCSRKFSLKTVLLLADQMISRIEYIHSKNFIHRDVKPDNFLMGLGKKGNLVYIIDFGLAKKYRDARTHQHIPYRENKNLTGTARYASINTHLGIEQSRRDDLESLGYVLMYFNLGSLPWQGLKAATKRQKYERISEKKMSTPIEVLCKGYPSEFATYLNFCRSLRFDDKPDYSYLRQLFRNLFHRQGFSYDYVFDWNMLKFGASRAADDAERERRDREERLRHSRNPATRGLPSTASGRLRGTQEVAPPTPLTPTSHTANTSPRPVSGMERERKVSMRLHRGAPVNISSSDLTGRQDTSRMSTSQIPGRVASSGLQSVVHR
Assay: KINOMEscan competitive binding
Conditions: 10 µM, n=1; kinase CSNK1D; read-out: Percent inhibition CSNK1D
Excerpt: The kinases were expressed as fusions to T7 bacteriophage. This is a sensitive, competitive binding assay where test compounds were used to displace immobilized ATP-site binding probe ligands from kinases of interest. The amount of kinase that remained bound to the immobilized probe ligands on the solid support was quantified. Percentage inhibition data were was plotted on kinome trees using the web-based tool KinMap (http://www.kinhub.org/kinmap) ([60]).
Quantity: inhibition at 10 µM (%)
Give bare numbers, in %.

[
  {
    "Item Smiles": "c1ccc(COc2cccc(-c3ccnc4[nH]ccc34)c2)cc1",
    "Measured Value": 0
  },
  {
    "Item Smiles": "Cc1ccc(O)cc1Nc1ccnc(Nc2cccc(C(N)=O)c2)n1",
    "Measured Value": 100
  },
  {
    "Item Smiles": "C[C@@H](Oc1cc(-c2cnc3ccccn23)sc1C(N)=O)c1ccccc1Cl",
    "Measured Value": 0
  },
  {
    "Item Smiles": "Nc1ncc2c(-c3ccncc3)c[nH]c2n1",
    "Measured Value": 99.9
  },
  {
    "Item Smiles": "Clc1ccc(Nc2ncc(-c3ccccc3)s2)cc1",
    "Measured Value": 0
  },
  {
    "Item Smiles": "COc1cc(Nc2nccc(-c3sc(N)nc3-c3cccc(NC(=O)c4c(F)cccc4F)c3)n2)cc(OC)c1OC",
    "Measured Value": 76.3
  }
]

Give one value of inhibition at 10 µM per listed compound.
1. COc1ccc(Nc2nccc(-c3cnn4ncccc34)n2)cc1
2. Fc1cccc(COc2ccc(Nc3ncnc4c3CN(CCN3CCOCC3)CC4)cc2Cl)c1
3. Cc1ccc(O)cc1N(C)c1ccnc(Nc2cccc(S(N)(=O)=O)c2)n1
4. CN1CCN(c2ccc(Nc3nccc(-c4cnn5ncccc45)n3)cc2C#N)CC1

Result:
1. 100
2. 0
3. 100
4. 100

###

target: panel of 203 kinases (Homo sapiens, UniProt P53778); construct: purchased DiscoverX (KINOMEscan); assay: KINOMEscan competitive binding, whole panel; conditions: 10 µM, n=1; kinase p38-gamma; read-out: Percent inhibition p38-gamma
Sequence (P53778 whole entry): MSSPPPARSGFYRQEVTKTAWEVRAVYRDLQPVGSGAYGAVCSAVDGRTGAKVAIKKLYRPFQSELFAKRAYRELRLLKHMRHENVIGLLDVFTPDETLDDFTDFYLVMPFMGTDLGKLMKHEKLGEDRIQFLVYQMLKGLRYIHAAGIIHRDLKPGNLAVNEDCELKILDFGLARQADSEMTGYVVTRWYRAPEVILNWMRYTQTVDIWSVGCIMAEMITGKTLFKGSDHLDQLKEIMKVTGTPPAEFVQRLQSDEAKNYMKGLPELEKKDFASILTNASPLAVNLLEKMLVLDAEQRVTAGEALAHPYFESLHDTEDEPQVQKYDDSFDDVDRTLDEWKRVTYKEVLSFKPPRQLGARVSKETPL
Record form. Attribute: inhibition at 10 µM. Fill in for each entry.
Give bare numbers, in %.

The examples below pair each entry with its known result.
[
  {
    "Item Smiles": "Nc1ncc2c(-c3ccncc3)c[nH]c2n1",
    "Uom": "%",
    "inhibition at 10 µM": 0
  },
  {
    "Item Smiles": "Fc1cccc(COc2ccc(Nc3ncnc4c3CN(CCN3CCOCC3)CC4)cc2Cl)c1",
    "Uom": "%",
    "inhibition at 10 µM": 0
  },
  {
    "Item Smiles": "CN1CCN(c2ccc(Nc3nccc(-c4cnn5ncccc45)n3)cc2C#N)CC1",
    "Uom": "%",
    "inhibition at 10 µM": 0
  },
  {
    "Item Smiles": "Clc1ccc(Nc2ncc(-c3ccccc3)s2)cc1",
    "Uom": "%",
    "inhibition at 10 µM": 0
  },
  {
    "Item Smiles": "Cc1ccc(O)cc1Nc1ccnc(Nc2cccc(C(N)=O)c2)n1",
    "Uom": "%",
    "inhibition at 10 µM": 0
  }
]

# return inhibition at 10 µM for each item in the list
1. COc1cc(Nc2nccc(-c3sc(N)nc3-c3cccc(NC(=O)c4c(F)cccc4F)c3)n2)cc(OC)c1OC
2. COc1ccc(Nc2nccc(-c3cnn4ncccc34)n2)cc1
3. Cc1ccc(O)cc1N(C)c1ccnc(Nc2cccc(S(N)(=O)=O)c2)n1

Result:
1. 0
2. 88.4
3. 93

# batch size: 2; output inhibition at 10 µM per entry
1. C[C@@H](Oc1cc(-c2cnc3ccccn23)sc1C(N)=O)c1ccccc1Cl
2. c1ccc(COc2cccc(-c3ccnc4[nH]ccc34)c2)cc1

Result:
1: 0; 2: 0

###

Molecular target: panel of 203 kinases (Homo sapiens)
Construct: purchased DiscoverX (KINOMEscan)
Sequence (Q13188 1-491): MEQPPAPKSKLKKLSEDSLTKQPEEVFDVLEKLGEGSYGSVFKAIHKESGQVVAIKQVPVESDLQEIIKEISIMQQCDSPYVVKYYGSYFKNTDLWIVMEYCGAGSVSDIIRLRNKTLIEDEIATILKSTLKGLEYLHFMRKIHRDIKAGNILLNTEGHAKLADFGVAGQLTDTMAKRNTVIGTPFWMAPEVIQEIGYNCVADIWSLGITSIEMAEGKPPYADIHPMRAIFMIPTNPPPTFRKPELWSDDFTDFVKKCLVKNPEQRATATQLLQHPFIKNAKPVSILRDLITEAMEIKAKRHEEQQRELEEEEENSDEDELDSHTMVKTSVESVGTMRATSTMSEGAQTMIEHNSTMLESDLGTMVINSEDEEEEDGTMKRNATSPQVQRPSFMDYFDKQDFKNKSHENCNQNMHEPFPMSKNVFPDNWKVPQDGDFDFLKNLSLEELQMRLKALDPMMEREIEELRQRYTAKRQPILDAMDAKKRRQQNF
Experiment: KINOMEscan competitive binding, whole panel
Conditions: 10 µM, n=1; kinase MST2; read-out: Percent inhibition MST2
Quantity: inhibition at 10 µM (%)
One number for each entry, in %.

[
  {
    "Item Smiles": "C[C@@H](Oc1cc(-c2cnc3ccccn23)sc1C(N)=O)c1ccccc1Cl",
    "Uom": "%",
    "inhibition at 10 µM": 81
  },
  {
    "Item Smiles": "CN1CCN(c2ccc(Nc3nccc(-c4cnn5ncccc45)n3)cc2C#N)CC1",
    "Uom": "%",
    "inhibition at 10 µM": 100
  },
  {
    "Item Smiles": "Nc1ncc2c(-c3ccncc3)c[nH]c2n1",
    "Uom": "%",
    "inhibition at 10 µM": 86.8
  },
  {
    "Item Smiles": "Clc1ccc(Nc2ncc(-c3ccccc3)s2)cc1",
    "Uom": "%",
    "inhibition at 10 µM": 0
  }
]

Could you now look at the following molecule, please?
inhibition at 10 µM in this record for `c1ccc(COc2cccc(-c3ccnc4[nH]ccc34)c2)cc1` : 0
